# System: 186277-243-T-J2-PDC complex spheroids, viability
# experiment.notes: Anticancer human tumor 186277-243-T-J2-PDC patient-derived colon adenocarcinoma cell line growth inhibition [RAS]
# settings: second compound 0.0949 µM; first compound 0.0316 µM; active compounds read low
# From the text: RAS pathway inhibitors in Combinations in Complex Spheroids A high-throughput screen of multi-cell type tumor spheroids was designed to identify active combinations of RAS pathway inhibitors and targeted small molecules. Complex spheroids include a stromal component modeled by human endothelial cells (HUVEC) and fibroblasts modeled by human mesenchymal stem cells (MSCs). […] Compounds. […] If the clinical Cmax for an agent had not been determined, the highest concentration tested was 10 microM. […]
The threshold is 6%. Values of viability, T/C beneath it are tagged condition met; values meeting or exceeding it are tagged condition not met.

INSERT INTO measurements (compound, test_system, label) VALUES
  ('C=CC(=O)N1CCN(c2nc(OCC3CCCN3C)nc3c(F)c(-c4nc(N)cc(C)c4C(F)(F)F)c(Cl)cc23)C(C)C1 (configuration not stated) + CCn1c(-c2cccnc2C(C)OC)c2c3cc(ccc31)N1CCOC(CC(NC(=O)C(C(C)C)N(C)C(=O)C3(F)CCN(C(=O)C#CC(C)(C)N(C)C)CC3)C(=O)N3CCCC(N3)C(=O)OCC(C)(C)C2)C1', '186277-243-T-J2-PDC complex spheroids, viability', 'condition not met'),
  ('Nc1ccn(C2OC(CO)C(O)C2(F)F)c(=O)n1 (configuration not stated) + CCn1c(-c2cc(N3CCN(C)CC3)cnc2C(C)OC)c2c3cc(ccc31)-c1csc(n1)CC(NC(=O)C1CC1C)C(=O)N1CCCC(N1)C(=O)OCC(C)(C)C2', '186277-243-T-J2-PDC complex spheroids, viability', 'condition met'),
  ('CC(Nc1ccc2c(c1)OCCn1cc(N3C(=O)OCC3C(F)F)nc1-2)C(N)=O (configuration not stated) + CCn1c(-c2cccnc2C(C)OC)c2c3cc(ccc31)N1CCOC(CC(NC(=O)C(C(C)C)N(C)C(=O)C3(F)CCN(C(=O)C#CC(C)(C)N(C)C)CC3)C(=O)N3CCCC(N3)C(=O)OCC(C)(C)C2)C1', '186277-243-T-J2-PDC complex spheroids, viability', 'condition not met'),
  ('CCC(CC)c1cc(NC2CCC(N)C2)n2nccc2n1 (configuration not stated) + CCn1c(-c2cccnc2C(C)OC)c2c3cc(ccc31)N1CCOC(CC(NC(=O)C(C(C)C)N(C)C(=O)C3(F)CCN(C(=O)C#CC(C)(C)N(C)C)CC3)C(=O)N3CCCC(N3)C(=O)OCC(C)(C)C2)C1', '186277-243-T-J2-PDC complex spheroids, viability', 'condition not met'),
  ('CC(=O)OC12COC1CC(O)C1(C)C(=O)C(O)C3=C(C)C(OC(=O)C(O)C(NC(=O)OC(C)(C)C)c4ccccc4)CC(O)(C(OC(=O)c4ccccc4)C21)C3(C)C (configuration not stated) + CCn1c(-c2cccnc2C(C)OC)c2c3cc(ccc31)N1CCOC(CC(NC(=O)C(C(C)C)N(C)C(=O)C3(F)CCN(C(=O)C#CC(C)(C)N(C)C)CC3)C(=O)N3CCCC(N3)C(=O)OCC(C)(C)C2)C1', '186277-243-T-J2-PDC complex spheroids, viability', 'condition met'),
  ('C[C@@H](NC(=O)c1ncnc(N)c1Cl)c1ncc(C(=O)Nc2cc(C(F)(F)F)c(Cl)cn2)s1 + CCn1c(-c2cccnc2C(C)OC)c2c3cc(ccc31)N1CCOC(CC(NC(=O)C(C(C)C)N(C)C(=O)C3(F)CCN(C(=O)C#CC(C)(C)N(C)C)CC3)C(=O)N3CCCC(N3)C(=O)OCC(C)(C)C2)C1', '186277-243-T-J2-PDC complex spheroids, viability', 'condition not met');

====

# System: 186277-243-T-J2-PDC complex spheroids, viability
# experiment.notes: Anticancer human tumor 186277-243-T-J2-PDC cell line growth inhibition [RAS]; active means viability on the fitted dose curve at most 10% of control; inactive means the rest;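 further: spheroids exposed to compounds for 7 days before viability read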
# settings: second compound 3.16 µM; first compound 10 µM
Outcome codes: label 1 for active, label 0 for inactive

INSERT INTO measurements (molecule, label) VALUES
  ('Cc1nc(N2CCC3(CC2)COC(C)C3N)c(CO)nc1Sc1ccnc(N)c1Cl (stereo not drawn) + C#Cc1c(F)ccc2cc(O)cc(-c3ncc4c(N5CC6CCC(C5)N6)nc(OCC56CCCN5CC(F)C6)nc4c3F)c12', 'label 1'),
  ('CCC(CC)c1cc(NC2CCC(N)C2)n2nccc2n1 (stereo not drawn) + C#Cc1c(F)ccc2cc(O)cc(-c3ncc4c(N5CC6CCC(C5)N6)nc(OCC56CCCN5CC(F)C6)nc4c3F)c12', 'label 1'),
  ('NC1c2ccccc2OC12CCN(c1cnc3c(N4CCCc5ncccc54)n[nH]c3n1)CC2 (stereo not drawn) + C#Cc1c(F)ccc2cc(O)cc(-c3ncc4c(N5CC6CCC(C5)N6)nc(OCC56CCCN5CC(F)C6)nc4c3F)c12', 'label 1'),
  ('CC1(O)CCCC1n1c(=O)c(C(F)F)cc2cnc(NC3CCN(S(C)(=O)=O)CC3)nc21 (stereo not drawn) + C#Cc1c(F)ccc2cc(O)cc(-c3ncc4c(N5CC6CCC(C5)N6)nc(OCC56CCCN5CC(F)C6)nc4c3F)c12', 'label 1'),
  ('C[C@@H](NC(=O)c1ncnc(N)c1Cl)c1ncc(C(=O)Nc2cc(C(F)(F)F)c(Cl)cn2)s1 + C#Cc1c(F)ccc2cc(O)cc(-c3ncc4c(N5CC6CCC(C5)N6)nc(OCC56CCCN5CC(F)C6)nc4c3F)c12', 'label 0'),
  ('CC(C)NCC(C(=O)N1CCN(c2ncnc3c2C(C)CC3O)CC1)c1ccc(Cl)cc1 (stereo not drawn) + C#Cc1c(F)ccc2cc(O)cc(-c3ncc4c(N5CC6CCC(C5)N6)nc(OCC56CCCN5CC(F)C6)nc4c3F)c12', 'label 1'),
  ('CC(Nc1ccc2c(c1)OCCn1cc(N3C(=O)OCC3C(F)F)nc1-2)C(N)=O (stereo not drawn) + C#Cc1c(F)ccc2cc(O)cc(-c3ncc4c(N5CC6CCC(C5)N6)nc(OCC56CCCN5CC(F)C6)nc4c3F)c12', 'label 1'),
  ('CC(=O)OC12COC1CC(O)C1(C)C(=O)C(O)C3=C(C)C(OC(=O)C(O)C(NC(=O)OC(C)(C)C)c4ccccc4)CC(O)(C(OC(=O)c4ccccc4)C21)C3(C)C (stereo not drawn) + C#Cc1c(F)ccc2cc(O)cc(-c3ncc4c(N5CC6CCC(C5)N6)nc(OCC56CCCN5CC(F)C6)nc4c3F)c12', 'label 1');

====

# System: 186277-243-T-J2-PDC complex spheroids, viability
# experiment.notes: Anticancer human tumor 186277-243-T-J2-PDC cell line growth inhibition [RAS];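 further: spheroids exposed to compounds for 7 days before viability read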
# settings: second compound 0.316 µM; first compound 0.0316 µM; active compounds read low
metric: viability, T/C (%)

INSERT INTO assay_data (compound, test_system, unit_symbol, reported_result) VALUES
  ('CCN1CCN(Cc2ccc(Nc3ncc(F)c(-c4cc(F)c5nc(C)n(C(C)C)c5c4)n3)nc2)CC1 + C=CC(=O)N1CCN(c2nc(OCC3CCCN3C)nc3c(F)c(-c4nc(N)cc(C)c4C(F)(F)F)c(Cl)cc23)C(C)C1', '186277-243-T-J2-PDC complex spheroids, viability', '%', 117),
  ('CC(=O)OC12COC1CC(O)C1(C)C(=O)C(O)C3=C(C)C(OC(=O)C(O)C(NC(=O)OC(C)(C)C)c4ccccc4)CC(O)(C(OC(=O)c4ccccc4)C21)C3(C)C (stereo not given) + C#Cc1c(F)ccc2cc(O)cc(-c3ncc4c(N5CC6CCC(C5)N6)nc(OCC56CCCN5CC(F)C6)nc4c3F)c12', '186277-243-T-J2-PDC complex spheroids, viability', '%', 5.77),
  ('Nc1ccn(C2OC(CO)C(O)C2(F)F)c(=O)n1 (stereo not given) + C#Cc1c(F)ccc2cc(O)cc(-c3ncc4c(N5CC6CCC(C5)N6)nc(OCC56CCCN5CC(F)C6)nc4c3F)c12', '186277-243-T-J2-PDC complex spheroids, viability', '%', 7.4),
  ('C=CC(=O)Nc1cc(Nc2nccc(-c3cn(C)c4ccccc34)n2)c(OC)cc1N(C)CCN(C)C + C=CC(=O)N1CCN(c2nc(OCC3CCCN3C)nc3c(F)c(-c4nc(N)cc(C)c4C(F)(F)F)c(Cl)cc23)C(C)C1', '186277-243-T-J2-PDC complex spheroids, viability', '%', 103),
  ('CC(C)n1nc(-c2ccc3oc(N)nc3c2)c2c(N)ncnc21 + C#Cc1c(F)ccc2cc(O)cc(-c3ncc4c(N5CC6CCC(C5)N6)nc(OCC56CCCN5CC(F)C6)nc4c3F)c12', '186277-243-T-J2-PDC complex spheroids, viability', '%', 7.95),
  ('O=C(c1ccc(F)c(F)c1Nc1ccc(I)cc1F)N1CC(O)([C@@H]2CCCCN2)C1 + C#Cc1c(F)ccc2cc(O)cc(-c3ncc4c(N5CC6CCC(C5)N6)nc(OCC56CCCN5CC(F)C6)nc4c3F)c12', '186277-243-T-J2-PDC complex spheroids, viability', '%', 10.5),
  ('CCN1CCN(Cc2ccc(Nc3ncc(F)c(-c4cc(F)c5nc(C)n(C(C)C)c5c4)n3)nc2)CC1 + C#Cc1c(F)ccc2cc(O)cc(-c3ncc4c(N5CC6CCC(C5)N6)nc(OCC56CCCN5CC(F)C6)nc4c3F)c12', '186277-243-T-J2-PDC complex spheroids, viability', '%', 21.7),
  ('NC1c2ccccc2OC12CCN(c1cnc3c(N4CCCc5ncccc54)n[nH]c3n1)CC2 (stereo not given) + C#Cc1c(F)ccc2cc(O)cc(-c3ncc4c(N5CC6CCC(C5)N6)nc(OCC56CCCN5CC(F)C6)nc4c3F)c12', '186277-243-T-J2-PDC complex spheroids, viability', '%', 10.8),
  ('O=C(c1ccc(F)c(F)c1Nc1ccc(I)cc1F)N1CC(O)([C@@H]2CCCCN2)C1 + C=CC(=O)N1CCN(c2nc(OCC3CCCN3C)nc3c(F)c(-c4nc(N)cc(C)c4C(F)(F)F)c(Cl)cc23)C(C)C1', '186277-243-T-J2-PDC complex spheroids, viability', '%', 93.8),
  ('CCC(CC)c1cc(NC2CCC(N)C2)n2nccc2n1 (stereo not given) + C#Cc1c(F)ccc2cc(O)cc(-c3ncc4c(N5CC6CCC(C5)N6)nc(OCC56CCCN5CC(F)C6)nc4c3F)c12', '186277-243-T-J2-PDC complex spheroids, viability', '%', 32.8);
